Test system: TAB165
Experiment: qHTS profiling for inhibitors of Plasmodium falciparum proliferation (AID 504749); further: nearly all actives have a fitted effect of over 60% in size
Conditions: P. falciparum in erythrocytes, SYBR Green DNA, 72 h; series mostly up to 28.7 µM
Records with an inconclusive call do not appear. Active and inactive are the calls of the source. The call rests on the fitted dose curve; in most records, active means well fitted inhibition curve with a large enough effect; inconclusive means small, poorly fitted or top-dose-only effect; inactive means flat fitted curve, though single readings scatter.
Log the outcome using a class from true for active, false for inactive

compound | assayedTarget | class
CC(C)COC(=O)c1ccc(N)cc1 | TAB165 | false
CN1C2CCC1CC(OC(=O)c1c[nH]c3ccccc13)C2 (configuration not stated) | TAB165 | false

### Prompt Please indicate how the test categorized C[C@@H](CN(C)C)CN1c2ccccc2Sc2ccccc21 .
### Response false

### Prompt Please indicate how the test categorized Oc1c(I)cc(Cl)c2cccnc12 .
### Response true

### Prompt Please indicate how the test categorized COc1cc(NS(C)(=O)=O)ccc1Nc1c2ccccc2nc2ccccc12 .
### Response true

### Prompt Please indicate how the test categorized Cc1ncc(CSSCc2cnc(C)c(O)c2CO)c(CO)c1O .
### Response false

### Prompt Please indicate how the test categorized COc1ccc(/C=C/C(=O)c2ccc(OC)cc2OC)cc1 .
### Response true

----------
Experiment: qHTS of pediatric cancer cell lines to identify multiple opportunities for drug repurposing: Confirmatory screen for A673 cells (AID 1347110);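 further: cells exposed to compound for 48 h before the viability read; nearly all actives have a fitted effect of over 65% in size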
Conditions: A673 Ewing sarcoma cell viability; series mostly up to 45.9 µM
Records with an inconclusive call do not appear. The source made the active and inactive calls. Calls follow the shape of the dose curve; as a rule, active = well fitted cell-killing curve with a large enough effect; inconclusive = small, poorly fitted or top-dose-only effect; inactive = flat fitted curve, though single readings scatter.
Log the outcome using a class from 1.0 = active, 0.0 = inactive

testSmiles | class
C[C@]12C=CC(=O)C=C1[C@@H](F)C[C@@H]1[C@@H]2[C@@H](O)C[C@@]2(C)[C@H]1CC[C@]2(O)C(=O)CO | 0.0
C[C@@H]1C[C@H]2[C@@H]3CCC4=CC(=O)C=C[C@]4(C)[C@@]3(F)[C@@H](O)C[C@]2(C)[C@H]1C(=O)CO | 0.0
CC(=O)OCC(=O)[C@@]12N=C(C)O[C@@H]1C[C@H]1[C@@H]3CCC4=CC(=O)C=C[C@]4(C)[C@H]3[C@@H](O)C[C@@]12C | 1.0
C[C@@H]1C[C@H]2[C@@H]3C[C@H](F)C4=CC(=O)C(Cl)=C[C@]4(C)[C@@]3(F)[C@@H](O)C[C@]2(C)[C@@]1(O)C(=O)CO | 0.0
CC1(C)O[C@@H]2C[C@H]3[C@@H]4C[C@H](F)C5=CC(=O)CC[C@]5(C)[C@H]4[C@@H](O)C[C@]3(C)[C@]2(C(=O)CO)O1 | 0.0

### Prompt Please indicate how the test categorized CCCC(=O)O[C@]1(C(=O)CO)CC[C@H]2[C@@H]3CCC4=CC(=O)CC[C@]4(C)[C@H]3[C@@H](O)C[C@@]21C .
### Response 0.0

### Prompt Please indicate how the test categorized CC(C)(C(=O)c1cccnc1)c1cccnc1 .
### Response 1.0

----------
Target: Protein phosphatase 1D (Homo sapiens) (UniProt O15297)
Sequence (O15297 whole entry, looked up): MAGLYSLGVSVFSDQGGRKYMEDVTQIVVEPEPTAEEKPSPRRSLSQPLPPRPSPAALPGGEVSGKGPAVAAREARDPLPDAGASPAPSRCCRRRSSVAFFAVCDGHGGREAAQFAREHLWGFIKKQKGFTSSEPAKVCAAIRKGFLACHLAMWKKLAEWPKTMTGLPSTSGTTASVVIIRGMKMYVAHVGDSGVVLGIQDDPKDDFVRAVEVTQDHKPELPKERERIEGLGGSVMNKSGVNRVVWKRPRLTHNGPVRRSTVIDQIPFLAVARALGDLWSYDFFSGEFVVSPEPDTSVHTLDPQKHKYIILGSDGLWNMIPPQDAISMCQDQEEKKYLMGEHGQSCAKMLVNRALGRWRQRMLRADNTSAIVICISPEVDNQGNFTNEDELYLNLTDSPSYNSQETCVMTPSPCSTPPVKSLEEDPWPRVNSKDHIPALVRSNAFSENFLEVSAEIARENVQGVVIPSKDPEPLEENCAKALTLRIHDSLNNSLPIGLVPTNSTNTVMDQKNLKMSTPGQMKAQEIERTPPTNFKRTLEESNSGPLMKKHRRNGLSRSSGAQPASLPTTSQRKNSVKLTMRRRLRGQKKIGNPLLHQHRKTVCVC
Test: RapidFire Mass Spectrometry qHTS Assay for Modulators of WT P53-Induced Phosphatase 1 (WIP1) (AID 1347424);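 further: amount of dephosphorylated VEPPL-S-QETFS peptide product formed by WIP1; plate controls were DMSO wells for no effect and GSK830371 inhibitor control at 10 µM for full effect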
Settings: WIP1 dephosphorylation of phosphopeptide, RapidFire MS; series mostly up to 63 µM
Results filed as inconclusive are left out. Calls of active or inactive are those of the source. Calls come from the whole dose curve; as a rule, active = well fitted inhibition curve with a large enough effect; inconclusive = small, poorly fitted or top-dose-only effect; inactive = no such curve, though single readings can be large or run the other way.
reportedMetric: outcome

Example cases with answers are listed next.
testSmiles | assayedTarget | outcome
C#C[C@]1(OC(C)=O)CC[C@H]2[C@@H]3CCC4=C[C@@H](OC(C)=O)CC[C@@H]4[C@H]3CC[C@@]21C | Protein phosphatase 1D (Homo sapiens) (UniProt O15297) | inactive
O=C(O)CNC(=O)c1ccccc1 | Protein phosphatase 1D (Homo sapiens) (UniProt O15297) | inactive
CC(C)N=C(N)/N=C(\N)Nc1ccc(Cl)cc1 | Protein phosphatase 1D (Homo sapiens) (UniProt O15297) | inactive
CC(C)(C(=O)c1cccnc1)c1cccnc1 | Protein phosphatase 1D (Homo sapiens) (UniProt O15297) | inactive

// moving on: another record for outcome
### Prompt Check the records and state outcome for CC(=O)OCC(=O)[C@@]1(O)[C@H](C)C[C@H]2[C@@H]3CCC4=CC(=O)C=C[C@]4(C)[C@@]3(F)[C@@H](O)C[C@@]21C
### Response inactive
